Read-out: Nuclear factor NF-kappa-B p105 subunit (Homo sapiens)
PROTOCOL DESCRIPTION: LTEA_HepaRG_NFKB1: Life Technologies and Expression Analysis (LTEA) Assay for Nuclear Factor Kappa B Subunit 1 (NFKB1) using HepaRG (AID 2283521);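 for outcome: differentiated human HepaRG liver cells in serum-free induction medium; TaqMan qRT-PCR transcript normalised to ACTB GAPDH and POLR2A housekeeping genes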
STATED CONDITIONS: mRNA level, 48 h; actives raise or lower the signal
The source made the active and inactive calls. Rule for the calls: active = hit-call score of the fitted dose curve at least 0.9, where 1 is the maximum; inactive = score below 0.9.
Reply using exactly one outcome from active, inactive

Would you please look over these solved cases?
>>> cat("CC(=O)NC1(c2cccc(F)c2)CCN(CC[C@@]2(c3ccc(Cl)c(Cl)c3)CN(c3ccccc3)C(=O)CO2)CC1")
"active"
>>> cat("CCCCCCCCCCCCc1ccccc1S(=O)(=O)O")
"inactive"
>>> cat("CCC(C)(C)C1CCC(O)CC1 (centres undefined)")
"inactive"
>>> cat("NC(=O)N(O)[C@@H]1C=C[C@H](Oc2cccc(Oc3ccc(F)cc3)c2)C1")
"active"
>>> cat("CC1=C(/C=C/C(C)=C/C=C/C(C)=C/C(=O)O)C(C)(C)CCC1")
"inactive"
>>> cat("O=c1c(-c2ccc(O)cc2)coc2cc(O)ccc12")
"inactive"

What was the test verdict on "Oc1cc2ccccc2c2ccccc12" ?
inactive

Hi, do you know how "O=C(O)Cc1cc(I)c(Oc2cc(I)c(O)c(I)c2)c(I)c1" came out in this test?
active

Hi, sorry to bother you, what did the test record for CC(O)CO (centres undefined) ?
inactive

Recorded call for "CCCCCCCCCCCCN1CCCC1=O" ?
inactive

Hey, what did the test say about "C#C[C@]1(O)CC[C@H]2[C@@H]3CCC4=CC(=O)CC[C@@H]4[C@H]3CC[C@@]21C" ?
inactive

Can you look up the reported call for "CC(C)(C)c1cccc(C(C)(C)C)c1O" for me?
inactive

Please indicate how the test categorized "CCC(=C(c1ccc(O)cc1)c1ccc(OCCN(C)C)cc1)c1ccccc1" .
inactive

Query: recorded result category for "C[C@@H]1C[C@H]2[C@@H]3CCC4=CC(=O)C=C[C@]4(C)[C@@]3(F)[C@@H](O)C[C@]2(C)[C@@]1(O)C(=O)COP(=O)(O)O" in this test
inactive
